Items are presented alongside their recorded melting point.

Cn1c(C(F)(F)F)cc(=O)n(-c2nc(Cl)c(Cl)cc2F)c1=O; 113 to 115 °C

Requested field: melting point. Item: "CC(C)OC(=O)C=Cc1cc([N+](=O)[O-])ccc1Cl"
74 to 75 °C

Requested field: melting point. Item: COc1ccc(CC(OC)C(=O)O)cc1NC(=O)Cc1ccc(C(F)(F)F)cc1 (stereo unspecified)
124 to 125 °C

Requested field: melting point. Item: "BrCC1(CBr)COC(c2ccccc2)OC1"
66 °C

Requested field: melting point. Item: CC1=CC(c2cccc(Cl)c2)C2=C(CC(C)(C)CC2=O)N1 (stereo unspecified)
183 to 185 °C

Requested field: melting point. Item: "O=C(NCC(=O)N1CCCCC1)OCc1ccccc1"
111 to 112 °C

Requested field: melting point. Item: "CC1(C)Cc2c(c(N3CCCC3)nc3sc4c(NCc5ccc(S(N)(=O)=O)cc5)ncnc4c23)CO1"
295 °C

Requested field: melting point. Item: "C#CCCCCNC(=O)C(F)(F)F"
41 to 42.5 °C
